- Experiment: Selectivity index, ratio of IC50 for african green monkey (Cercopithecus aethiops) Vero cells to IC50 for chloroquine-resistant Plasmodium falciparum W2
- Format: toxicity, cell-based
- Test conditions: read-out: Ratio IC50
Reported property: selectivity ratio
Give bare numbers.

Suppose we examine the molecule CC[C@@H](C)[C@H]1O[C@@H](c2c(O)c(-c3ccccc3)cn(O)c2=O)[C@H](C)C[C@@H]1C [SEPTORIAMYCIN A] ; what selectivity ratio value has been reported? 6.5

====

- Experiment: Selectivity index, ratio of IC50 for african green monkey (Cercopithecus aethiops) Vero cells to IC50 for chloroquine-sensitive Plasmodium falciparum D6
- Assay type: toxicity, cell-based
- Test conditions: read-out: Ratio IC50
Reported property: selectivity ratio
Numbers only.

Reported selectivity ratio for CC[C@@H](C)[C@H]1O[C@@H](c2c(O)c(-c3ccccc3)cn(O)c2=O)[C@H](C)C[C@@H]1C [SEPTORIAMYCIN A] : what is it? 3.9
